Measured values drawn from PubChem BioAssay AID1918947 for this set.

Tested on: A498 complex spheroid viability
Test: Anticancer human tumor A498 cell line growth inhibition
Details: second compound 10 µM; first compound 1 µM; stronger effect = lower value
Source text: Multicellular complex tumor spheroid response to LSD1 Inhibitor Iadademstat in combination with a variety of drugs and investigational agents in selected tumor cell lines The current study was undertaken to assess response to LSD1 inhibitors in combination with standard-of-care drugs and investigational agents in solid tumor complex spheroid models as well as in the K-562 leukemia. […] Compounds. […] If the clinical Cmax for an agent had not been determined, the highest concentration tested was 10 microM. […]
Reported viability, T/C values are given for each entry in this list.
Assay Endpoint: viability, T/C (%)

1. CC1COCCN1c1cc(C2(S(C)(=N)=O)CC2)nc(-c2ccnc3[nH]ccc23)n1 (centres undefined) + NC1CC1c1ccc(-c2cccc(O)c2)cc1 | 34
2. CC1COCCN1c1cc(C2(S(C)(=N)=O)CC2)nc(-c2ccnc3[nH]ccc23)n1 (centres undefined) + NC1CCC(NC2CC2c2ccccc2)CC1 | 33.9
3. COc1cc(Nc2ncc3c(n2)-c2ccc(Cl)cc2C(c2c(F)cccc2OC)=NC3)ccc1C(=O)O + NC1CC1c1ccc(-c2cccc(O)c2)cc1 | 31.6
4. O=C(c1cc(Cc2n[nH]c(=O)c3ccccc23)ccc1F)N1CCN(C(=O)C2CC2)CC1 + NC1CCC(NC2CC2c2ccccc2)CC1 | 74.1
5. Nc1ncn(C2CC(O)C(CO)O2)c(=O)n1 (centres undefined) + NC1CCC(NC2CC2c2ccccc2)CC1 | 31.9
6. CC1COCCN1c1cc(-c2ccnn2C)c2ccnc(-c3ccn[nH]3)c2n1 (centres undefined) + NC1CCC(NC2CC2c2ccccc2)CC1 | 9.55
7. Nc1ncn(C2CC(O)C(CO)O2)c(=O)n1 (centres undefined) + NC1CC1c1ccc(-c2cccc(O)c2)cc1 | 60.4
8. CC1(C)CCC(CN2CCN(c3ccc(C(=O)NS(=O)(=O)c4ccc(NCC5CCOCC5)c([N+](=O)[O-])c4)c(Oc4cnc5[nH]ccc5c4)c3)CC2)=C(c2ccc(Cl)cc2)C1 + NC1CC1c1ccc(-c2cccc(O)c2)cc1 | 77.8
9. O=C(C=Cn1cnc(-c2cc(C(F)(F)F)cc(C(F)(F)F)c2)n1)NNc1cnccn1 + NC1CCC(NC2CC2c2ccccc2)CC1 | 16.4
10. O=C(C=Cn1cnc(-c2cc(C(F)(F)F)cc(C(F)(F)F)c2)n1)NNc1cnccn1 + NC1CC1c1ccc(-c2cccc(O)c2)cc1 | 21.6
11. COc1ccc([C@@H](O)c2cc(-c3ncnc4cc(N5CCOCC5)ccc34)c(F)cc2Cl)nn1 + NC1CC1c1ccc(-c2cccc(O)c2)cc1 | 16.6
12. CC(C)c1c(-c2ccccc2)nc2c(C#N)c[nH]n2c1=O + NC1CC1c1ccc(-c2cccc(O)c2)cc1 | 97.4
13. CC1(C)CCC(CN2CCN(c3ccc(C(=O)NS(=O)(=O)c4ccc(NCC5CCOCC5)c([N+](=O)[O-])c4)c(Oc4cnc5[nH]ccc5c4)c3)CC2)=C(c2ccc(Cl)cc2)C1 + NC1CCC(NC2CC2c2ccccc2)CC1 | 65.2
14. CC1COCCN1c1cc(-c2ccnn2C)c2ccnc(-c3ccn[nH]3)c2n1 (centres undefined) + NC1CC1c1ccc(-c2cccc(O)c2)cc1 | 11.4

====

Reported viability, T/C values are given for each entry in this list.
tested on: A498 complex spheroid viability; test: Anticancer human tumor A498 cell line growth inhibition; details: second compound 0.1 µM; first compound 0.000316 µM; stronger effect = lower value;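 also: spheroids exposed to agents for seven days before readout; 100% = DMSO vehicle-treated spheroids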
Assay Endpoint: viability, T/C (%)

1. CC(C)CC(NC(=O)C(Cc1ccccc1)NC(=O)c1cnccn1)B(O)O (stereo not drawn) + NC1CC1c1ccc(-c2cccc(O)c2)cc1 | 105
2. CC(C)CC(NC(=O)CNC(=O)c1cc(Cl)ccc1Cl)B1OC(=O)CC(CC(=O)O)(C(=O)O)O1 (stereo not drawn) + NC1CC1c1ccc(-c2cccc(O)c2)cc1 | 93.7
3. CC(C)CC(NC(=O)C(Cc1ccccc1)NC(=O)c1cnccn1)B(O)O (stereo not drawn) + NC1CCC(NC2CC2c2ccccc2)CC1 | 82.1
4. CC[C@@]1(O)C(=O)OCc2c1cc1n(c2=O)Cc2cc3c(CN(C)C)c(O)ccc3nc2-1 + NC1CCC(NC2CC2c2ccccc2)CC1 | 82.3
5. Cn1ncnc1C1c2n[nH]c(=O)c3cc(F)cc(c23)NC1c1ccc(F)cc1 (stereo not drawn) + NC1CCC(NC2CC2c2ccccc2)CC1 | 84
6. CC[C@@]1(O)C(=O)OCc2c1cc1n(c2=O)Cc2cc3c(CN(C)C)c(O)ccc3nc2-1 + NC1CC1c1ccc(-c2cccc(O)c2)cc1 | 105
7. CC(C)CC(NC(=O)CNC(=O)c1cc(Cl)ccc1Cl)B1OC(=O)CC(CC(=O)O)(C(=O)O)O1 (stereo not drawn) + NC1CCC(NC2CC2c2ccccc2)CC1 | 86.6
8. Cn1ncnc1C1c2n[nH]c(=O)c3cc(F)cc(c23)NC1c1ccc(F)cc1 (stereo not drawn) + NC1CC1c1ccc(-c2cccc(O)c2)cc1 | 94.6

====

test system: A498 complex spheroid viability; experiment: Anticancer human tumor A498 cell line growth inhibition; conditions: second compound 10 µM; first compound 0.00949 µM; stronger effect = lower value;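 also: spheroids exposed to agents for seven days before readout; 100% = DMSO vehicle-treated spheroids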
Reported viability, T/C values are given for each entry in this list.
Assay Endpoint: viability, T/C (%)

1) NS(=O)(=O)OCC1CC(n2ccc3c(NC4CCc5ccccc54)ncnc32)CC1O (configuration not stated) + NC1CC1c1ccc(-c2cccc(O)c2)cc1 | 90.8
2) CCN(c1cc(-c2ccc(CN3CCOCC3)cc2)cc(C(=O)NCc2c(C)cc(C)[nH]c2=O)c1C)C1CCOCC1 + NC1CCC(NC2CC2c2ccccc2)CC1 | 80.4
3) Nc1ccn(C2OC(CO)C(O)C2(F)F)c(=O)n1 (configuration not stated) + NC1CCC(NC2CC2c2ccccc2)CC1 | 39.8
4) COc1cc(C2c3cc4c(cc3C(OC3OC5COC(C)OC5C(O)C3O)C3COC(=O)C23)OCO4)cc(OC)c1O (configuration not stated) + NC1CC1c1ccc(-c2cccc(O)c2)cc1 | 63.5
5) O=C(C=Cc1cccc(S(=O)(=O)Nc2ccccc2)c1)NO + NC1CC1c1ccc(-c2cccc(O)c2)cc1 | 93.2
6) Nc1ccccc1NC(=O)c1ccc(CNC(=O)OCc2cccnc2)cc1 + NC1CC1c1ccc(-c2cccc(O)c2)cc1 | 86.2
7) Nc1ncn(C2CC(O)C(CO)S2)c(=O)n1 (configuration not stated) + NC1CCC(NC2CC2c2ccccc2)CC1 | 76.1

====

Reported viability, T/C values are given for each entry in this list.
tested on: A498 complex spheroid viability; assay: Anticancer human tumor A498 cell line growth inhibition; conditions: second compound 0.316 µM; first compound 0.000949 µM; stronger effect = lower value;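 also: spheroids exposed to agents for seven days before readout; 100% = DMSO vehicle-treated spheroids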
Assay Endpoint: viability, T/C

1) Nc1ncn(C2CC(O)C(CO)S2)c(=O)n1 (stereo unspecified) + NC1CC1c1ccc(-c2cccc(O)c2)cc1 | 114%
2) CCc1c2c(nc3ccc(O)cc13)-c1cc3c(c(=O)n1C2)COC(=O)[C@]3(O)CC + NC1CCC(NC2CC2c2ccccc2)CC1 | 46%
3) Nc1ncn(C2CC(O)C(CO)S2)c(=O)n1 (stereo unspecified) + NC1CCC(NC2CC2c2ccccc2)CC1 | 95.1%
4) Nc1ccn(C2OC(CO)C(O)C2(F)F)c(=O)n1 (stereo unspecified) + NC1CCC(NC2CC2c2ccccc2)CC1 | 24.3%
5) Nc1ccn(C2OC(CO)C(O)C2(F)F)c(=O)n1 (stereo unspecified) + NC1CC1c1ccc(-c2cccc(O)c2)cc1 | 22.6%
6) CCc1c2c(nc3ccc(O)cc13)-c1cc3c(c(=O)n1C2)COC(=O)[C@]3(O)CC + NC1CC1c1ccc(-c2cccc(O)c2)cc1 | 37.5%

====

tested on: A498 complex spheroid viability; assay: Anticancer human tumor A498 cell line growth inhibition; details: second compound 0.316 µM; first compound 0.00316 µM; stronger effect = lower value;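 also: spheroids exposed to agents for seven days before readout; 100% = DMSO vehicle-treated spheroids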
Rule for this label: Satisfied means viability, T/C is less than 90%; Not satisfied means viability, T/C is at least 90%.

1) CC(C)CC(NC(=O)CNC(=O)c1cc(Cl)ccc1Cl)B1OC(=O)CC(CC(=O)O)(C(=O)O)O1 (centres undefined) + NC1CC1c1ccc(-c2cccc(O)c2)cc1 | Satisfied
2) O=C(C=Cn1cnc(-c2cc(C(F)(F)F)cc(C(F)(F)F)c2)n1)NNc1cnccn1 + NC1CC1c1ccc(-c2cccc(O)c2)cc1 | Satisfied
3) CC(C)CC(NC(=O)C(Cc1ccccc1)NC(=O)c1cnccn1)B(O)O (centres undefined) + NC1CCC(NC2CC2c2ccccc2)CC1 | Satisfied
4) Cn1ncnc1C1c2n[nH]c(=O)c3cc(F)cc(c23)NC1c1ccc(F)cc1 (centres undefined) + NC1CC1c1ccc(-c2cccc(O)c2)cc1 | Not satisfied
5) CC(C)CC(NC(=O)C(Cc1ccccc1)NC(=O)c1cnccn1)B(O)O (centres undefined) + NC1CC1c1ccc(-c2cccc(O)c2)cc1 | Satisfied
6) Cn1ncnc1C1c2n[nH]c(=O)c3cc(F)cc(c23)NC1c1ccc(F)cc1 (centres undefined) + NC1CCC(NC2CC2c2ccccc2)CC1 | Not satisfied
7) COc1cc(Nc2ncc3c(n2)-c2ccc(Cl)cc2C(c2c(F)cccc2OC)=NC3)ccc1C(=O)O + NC1CC1c1ccc(-c2cccc(O)c2)cc1 | Satisfied
8) CC[C@@]1(O)C(=O)OCc2c1cc1n(c2=O)Cc2cc3c(CN(C)C)c(O)ccc3nc2-1 + NC1CC1c1ccc(-c2cccc(O)c2)cc1 | Satisfied
